Provide the recorded protein stability index for the entries that follow.
B1: STEAP1 (parent)
chain: WMLTRKQFGLLSFFFAVLHAIYSL

variants of: B1; experiment: protein stability index of a GFP-peptide fusion (GPS, HEK-293T) (PSI 1-6); higher = more stable; details: c terminus: a fixed tail appended;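 note: lentivirally expressed fusions sorted by FACS into six bins by GFP to DsRed ratio, PSI derived from sequencing read proportions per bin multiplied by bin number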

Task: What value of measured protein stability index is listed for "S12E" ?
Result: 2.95

Task: What value of measured protein stability index is listed for "I21K" ?
Result: 2.41

Task: What value of measured protein stability index is listed for "I21M" ?
Result: 1.66

Task: What value of measured protein stability index is listed for "L18G" ?
Result: 2.66

Task: What value of measured protein stability index is listed for "L18C" ?
Result: 2.75

Task: What value of measured protein stability index is listed for "L24M" ?
Result: 1.97

Task: What value of measured protein stability index is listed for "T4R" ?
Result: 1.59

Task: What value of measured protein stability index is listed for "T4L" ?
Result: 2.77

Task: What value of measured protein stability index is listed for "F13H" ?
Result: 3.2

Task: What value of measured protein stability index is listed for "W1G" ?
Result: 1.91

Task: What value of measured protein stability index is listed for "A20C" ?
Result: 2.18
